I'd appreciate it if you could supply Emax values for the items below.
# target.desc: human muscarinic M1 receptor (Homo sapiens, UniProt P11229)
# Sequence (P11229 whole entry): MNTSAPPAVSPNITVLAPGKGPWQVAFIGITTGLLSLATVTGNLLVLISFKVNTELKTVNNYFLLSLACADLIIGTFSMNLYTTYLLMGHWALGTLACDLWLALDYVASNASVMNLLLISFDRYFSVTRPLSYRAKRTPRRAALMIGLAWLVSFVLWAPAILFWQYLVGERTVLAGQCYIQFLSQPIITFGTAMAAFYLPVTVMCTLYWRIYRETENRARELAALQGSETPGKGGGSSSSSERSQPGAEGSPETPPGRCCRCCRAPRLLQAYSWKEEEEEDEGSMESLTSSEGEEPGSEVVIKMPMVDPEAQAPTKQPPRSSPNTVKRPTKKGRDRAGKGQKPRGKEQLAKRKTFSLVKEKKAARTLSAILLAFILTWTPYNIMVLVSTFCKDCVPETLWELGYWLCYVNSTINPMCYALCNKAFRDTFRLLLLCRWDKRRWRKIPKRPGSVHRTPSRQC
# experiment.notes: Alphascreen Surefire phospho-ERK1/2 functional assay, M1
# Type: cell-based
# measurement.setup: CHO, read-out: % Emax cf. ACh, M1, CHO cells stably expressing human M1; relative to ACh
Give bare numbers, in %.

Give the reported Emax for CCOC(=O)N1CCC2(CC(N3CCC(c4ncc[nH]4)CC3)C2)C1 (single isomer, unassigned) [1-1 Isomer 2] (system: human muscarinic M1 receptor (Homo sapiens, UniProt P11229)).
121

Field: Emax. Fill in for each record below.
1. CCOC(=O)N1CCC2(CC(N3CCC(N4CC(F)(F)C[C@@H]4C(=O)OC)CC3)C2)C1 (single isomer, unassigned) [2-87 Isomer 2]
2. CCOC(=O)N1CCC2(CC(N3CCC(c4ccn[nH]4)CC3)C2)C1 (single isomer, unassigned) [1-18 Isomer 2]
3. CCOC(=O)N1CCC2(CC(N3CCC(c4nc(Cl)c(Cl)n4C)CC3)C2)C1 (single isomer, unassigned) [1-17 Isomer 2]
4. CCOC(=O)N1CCC2(CC(N3CCC(N4CC(F)(F)C[C@@H]4C(N)=O)CC3)C2)C1 (single isomer, unassigned) [2-90 Isomer 2]

1: 46; 2: 65; 3: 53; 4: 54

----------
# target.desc: human muscarinic M1 receptor (Homo sapiens, UniProt P11229)
# experiment.notes: Alphascreen Surefire phospho-ERK1/2 functional assay, M1
# Assay type: cell-based
# measurement.setup: CHO cells stably expressing human M1; phospho-ERK1/2; * = variable results; read-out: pEC50 M1 (converted)
Task for the reader: assign each of the following compounds its reported EC50.

Past entries and their recorded results:
Report EC50 for CCOC(=O)N1CCC2(CC(N3CCC(C4CCCN4C)CC3)C2)C1 (single isomer, unassigned) [2-22 Isomer 2] tested on human muscarinic M1 receptor (Homo sapiens, UniProt P11229).
> 20 µM

# get_value(readout= EC50, system= human muscarinic M1 receptor (Homo sapiens, UniProt P11229)) for CCCn1nccc1C1CCN(C2CC3(CCN(C(=O)OC)C3)C2)CC1 (single isomer, unassigned) [1-48 Isomer 2]
> 20 µM

Shifting focus to the compound that follows.
Please tell me: EC50 of CCOC(=O)N1CCC2(CC(N3CCC([C@@H]4CCCN4C(=O)N(C)CC(F)(F)F)CC3)C2)C1 (single isomer, unassigned) [2-55 Isomer 1] , system human muscarinic M1 receptor (Homo sapiens, UniProt P11229)?
> 20 µM

----------
Please go through the items and note down their EC50.
# target.desc: human muscarinic M1 receptor (Homo sapiens)
# experiment.notes: Alphascreen Surefire phospho-ERK1/2 functional assay, M1
# Assay type: cell-based
# measurement.setup: CHO cells stably expressing human M1; phospho-ERK1/2; * = variable results; read-out: pEC50 M1 (converted)
Answers are plain numbers, in µM.

Examples with answers:
Request the reported EC50 associated with CCOC(=O)N1CCC2(CC(N3CCC([C@@H]4CCCN4C(=O)N(C)OC)CC3)C2)C1 (single isomer, unassigned) [2-34 Isomer 2]
3.16

Name the reported EC50 value associated with the compound CCOC(=O)N1CCC2(CC(N3CCC(N4CCCNC4=O)CC3)C2)C1 (single isomer, unassigned) [4-8 Isomer 1]
0.501

# lookup: EC50 of CCOC(=O)N1CCC2(CC(N3CCC(N4CCCOC4=O)CC3)C2)C1 (single isomer, unassigned) [4-7 Isomer 2]
3.98

Fill blank: measured EC50 of the compound CCOC(=O)N1CCC2(CC(N3CCC(N4C(=O)CC[C@H]4CC)CC3)C2)C1 (single isomer, unassigned) [2-114 Isomer 2] is ____.
0.126

Now take the following compound into account.
Given the entry CCOC(=O)N1CCC2(CC(N3CCC(C4CCCN4C(=O)CC)CC3)C2)C1 (single isomer, unassigned) [2-6 Isomer 2] , report its measured EC50.
3.16
